tested on: Salmonella enterica typhimurium; experiment: growth AUC normalised to DMSO control (fraction of control); higher = less growth inhibition, active = hit call of the paper; details: 20 µM
Counter-ions that a name gives are not always drawn.
reported.endpoint: growth AUC normalised to DMSO control

Below, each entry is followed by its recorded growth AUC normalised to DMSO control result.
# molecule, study.system, growth AUC normalised to DMSO control
measured = [
    ("CC[C@H]1OC(=O)[C@H](C)[C@@H](O[C@H]2C[C@@](C)(OC)[C@@H](O)[C@H](C)O2)[C@H](C)[C@@H](O[C@@H]2O[C@H](C)C[C@H](N(C)C)[C@H]2O)[C@](C)(O)C[C@@H](C)[C@@H]2N[C@@H](COCCOC)O[C@H]([C@H]2C)[C@]1(C)O", "Salmonella enterica typhimurium", "0.879 (active)"),
    ("N[C@H]1CONC1=O [(S,-) Cycloserine]", "Salmonella enterica typhimurium", "1.01 (inactive)"),
    ("CN(C)CCN(Cc1cccs1)c1ccccn1 [Methapyrilene hydrochloride]", "Salmonella enterica typhimurium", "0.977 (inactive)"),
    ("O=S(=O)(O)CCS", "Salmonella enterica typhimurium", "1 (inactive)"),
    ("CNCCCN1c2ccccc2CCc2ccccc21 [Desipramine hydrochloride]", "Salmonella enterica typhimurium", "0.974 (inactive)"),
]

query: Note growth AUC normalised to DMSO control for the molecule shown: CC(C)[C@H](N)C(=O)OCCOCn1cnc2c(=O)nc(N)[nH]c21 [Valacyclovir hydrochloride]
result: 0.993 (inactive)

query: Note growth AUC normalised to DMSO control for the molecule shown: N=C(N)NCCN1CCCCCCC1 [Guanethidine sulfate]
result: 1.01 (inactive)

query: Note growth AUC normalised to DMSO control for the molecule shown: `C[C@]1(Cn2ccnn2)[C@H](C(=O)O)N2C(=O)C[C@H]2S1(=O)=O`
result: 0.986 (inactive)

====

tested on: Yersinia pseudotuberculosis; test: growth AUC normalised to DMSO control (fraction of control); higher = less growth inhibition, active = hit call of the paper; conditions: 20 µM
Counter-ions that a name gives are not always drawn.
reported.endpoint: growth AUC normalised to DMSO control
// response body must contain only the number

Below, each entry is followed by its recorded growth AUC normalised to DMSO control result.
# compound, growth AUC normalised to DMSO control
records = [
    ("CC(=O)[C@H]1CC[C@H]2[C@@H]3C[C@H](C)C4=CC(=O)CC[C@]4(C)[C@H]3[C@@H](O)C[C@]12C [Medrysone]", 0.991),
    ("CC1(C)S[C@@H]2[C@H](NC(=O)Cc3ccccc3)C(=O)N2[C@H]1C(=O)O [Benzylpenicillin sodium]", 0.101),
    ("Cc1cc(C(C)(C)CC(C)(C)C)ccc1OCCOCC[N+](C)(C)Cc1ccccc1 [Methyl benzethonium chloride]", 1.02),
    ("O=C1O[C@H]([C@@H](O)CO)C(O)=C1O [Ascorbic acid]", 0.989),
    ("C[C@@H](O)[C@H]1C(=O)N2C(C(=O)O)=C(SCCNC=N)C[C@H]12 [Imipenem]", 0.967),
]

query: Please report growth AUC normalised to DMSO control with Yersinia pseudotuberculosis for item CCCC1O[C@@H]2C[C@H]3[C@@H]4CCC5=CC(=O)C=C[C@]5(C)[C@H]4[C@@H](O)C[C@]3(C)[C@]2(C(=O)CO)O1 (stereo not given in full) [Budesonide] .
result: 0.989

query: Please report growth AUC normalised to DMSO control with Yersinia pseudotuberculosis for item CC(C)(C)NC[C@H](O)COc1nsnc1N1CCOCC1 [Timolol maleate salt] .
result: 0.987

query: Please report growth AUC normalised to DMSO control with Yersinia pseudotuberculosis for item O=C1Cc2cc(CCN3CCN(c4nsc5ccccc45)CC3)c(Cl)cc2N1 [Ziprasidone hydrochloride monohydrate] .
result: 1

query: Please report growth AUC normalised to DMSO control with Yersinia pseudotuberculosis for item O=C(Nc1ccccc1)OCC(CN1CCCCC1)OC(=O)Nc1ccccc1 (stereo not given) [Diperodon hydrochloride] .
result: 1.01

query: Please report growth AUC normalised to DMSO control with Yersinia pseudotuberculosis for item CN(c1nccc(=O)[nH]1)C1CCN(c2nc3ccccc3n2Cc2ccc(F)cc2)CC1 [Mizolastine] .
result: 1.01

query: Please report growth AUC normalised to DMSO control with Yersinia pseudotuberculosis for item O=C1CCc2cc(OCCCCc3nnnn3C3CCCCC3)ccc2N1 [Cilostazol] .
result: 0.989

query: Please report growth AUC normalised to DMSO control with Yersinia pseudotuberculosis for item Oc1ncnc2[nH]ncc12 [Allopurinol] .
result: 1

query: Please report growth AUC normalised to DMSO control with Yersinia pseudotuberculosis for item CN[C@@H]1[C@H](O[C@H]2[C@H](O[C@H]3[C@H](O)[C@@H](O)[C@H](NC(=N)N)[C@@H](O)[C@@H]3NC(=N)N)O[C@@H](C)[C@]2(O)CO)O[C@@H](CO)[C@H](O)[C@H]1O [Dihydrostreptomycin sulfate] .
result: 0.973

====

test system: S. enterica typhimurium tolC KO; test: growth AUC normalised to DMSO control (median) (fraction of control); higher = less growth inhibition, active = hit call of the paper; conditions: 20 µM
Please state which outcome applies, choosing from active, inactive

query: # outcome recorded in this test, key = `CC(C)C[C@H](NC(=O)[C@@H](O)[C@H](N)Cc1ccccc1)C(=O)O`
result: inactive

query: # outcome recorded in this test, key = CC(C)(O/N=C(\C(=O)N[C@@H]1C(=O)N2C(C(=O)[O-])=C(C[n+]3ccccc3)CS[C@H]12)c1csc(N)n1)C(=O)O [Ceftazidime pentahydrate]
result: active

query: # outcome recorded in this test, key = `COc1ccc(C(=O)c2ccccc2O)c(O)c1`
result: inactive

====

system: P. vulgatus WT; experiment: growth AUC normalised to DMSO control (median) (fraction of control); higher = less growth inhibition, active = hit call of the paper; conditions: 20 µM
Where a name gives a salt, the structure may show the parent alone.
# growth AUC normalised to DMSO control annotations
// response body must contain only the number

# compound, growth AUC normalised to DMSO control
rows = [
    ("Cc1cc(C(C)(C)C)c(O)c(C)c1CC1=NCCN1 [Oxymetazoline hydrochloride]", 0.988),
    ("Nc1ccn([C@@H]2O[C@H](CO)[C@@H](O)C2(F)F)c(=O)n1", 1.02),
    ("NC12CC3CC(CC(C3)C1)C2 [Adamantamine fumarate]", 1.08),
    ("NS(=O)(=O)c1cc2c(cc1Cl)NCNS2(=O)=O [Hydrochlorothiazide]", 0.997),
]

query: Please report growth AUC normalised to DMSO control with P. vulgatus WT for item `Cc1ncc([N+](=O)[O-])n1CCO` .
result: 0.0126

====

# growth AUC normalised to DMSO control annotations
tested on: Shigella flexneri; assay: growth AUC normalised to DMSO control (fraction of control); higher = less growth inhibition, active = hit call of the paper; details: 20 µM
// response body must contain only the number

Below, each entry is followed by its recorded growth AUC normalised to DMSO control result.
# compound, test.value
measured = [
    ("Cn1c(=O)c2nc[nH]c2n(C)c1=O [Theophylline monohydrate]", 1.05),
    ("COc1cc(-c2ccc(=O)[nH]n2)ccc1OC(F)F", 0.999),
    ("CCC1=C(C)CN(C(=O)NCCc2ccc(S(=O)(=O)NC(=O)N[C@H]3CC[C@H](C)CC3)cc2)C1=O [Glimepiride]", 1.01),
]

// switching to the query compound
query: Note growth AUC normalised to DMSO control for the compound shown: `C[C@H]1[C@H](NC(=O)/C(=N\OC(C)(C)C(=O)O)c2csc(N)n2)C(=O)N1S(=O)(=O)O`
result: 0.0599

====

test system: S. enterica typhimurium WT; test: growth AUC normalised to DMSO control (median) (fraction of control); higher = less growth inhibition, active = hit call of the paper; details: 20 µM
Where a name gives a salt, the structure may show the parent alone.
# growth AUC normalised to DMSO control annotations
// response body must contain only the number

Below, each entry is followed by its recorded growth AUC normalised to DMSO control result.
# molecule, test.value
measured = [
    ("CN1CCC[C@@H]1CCO[C@](C)(c1ccccc1)c1ccc(Cl)cc1 [Clemastine fumarate]", 0.998),
    ("Cc1nc(=O)c2cc(CN(C)c3ccc(C(=O)N[C@@H](CCC(=O)O)C(=O)O)s3)ccc2[nH]1", 1),
    ("CN1CCN(c2c(F)cc3c(=O)c(C(=O)O)cn4c3c2OCN4C)CC1", 0.00445),
    ("Nc1nc(=O)c2c([nH]1)NC[C@@H](CNc1ccc(C(=O)N[C@@H](CCC(=O)O)C(=O)O)cc1)N2C=O [Folinic acid calcium salt]", 1),
]

query: Note growth AUC normalised to DMSO control for the molecule shown: CC(N)(Cc1ccc(O)c(O)c1)C(=O)O (stereo not drawn)
result: 1.01

query: Note growth AUC normalised to DMSO control for the molecule shown: OC(CNCC(O)C1CCc2cc(F)ccc2O1)C1CCc2cc(F)ccc2O1 (stereo not drawn) [Nebivolol hydrochloride]
result: 0.998

query: Note growth AUC normalised to DMSO control for the molecule shown: `O=C(O)c1ccccc1C(=O)Nc1ccc(S(=O)(=O)Nc2nccs2)cc1`
result: 0.993

query: Note growth AUC normalised to DMSO control for the molecule shown: `CCc1nc(N)nc(N)c1-c1ccc(Cl)cc1`
result: 0.93

// data source = the supplement of paper PMC12350171
